tested on: Micrococcus luteus; experiment: Antibacterial activity against Micrococcus luteus ATCC4698 after 24 hrs by two fold serial dilution method; type: functional; conditions: ATCC4698, 24 h
REPORTED ENDPOINT: MIC (µM)
Express your answer in µM, writing the number without its unit.

smiles_repr=CCCCCCCn1c(CCCC)nc(Cl)c1/C=N/N1C(=O)c2cccc3c(N4CCOCC4)ccc(c23)C1=O experimental_result=450
smiles_repr=CCCCc1nc(Cl)c(/C=N/N2C(=O)c3cccc4c(N5CCCCC5)ccc(c34)C2=O)[nH]1 experimental_result=280
smiles_repr=CCCCc1nc(Cl)c(/C=N/N2C(=O)c3cccc4c(N5CCOCC5)ccc(c34)C2=O)[nH]1 experimental_result=270
smiles_repr=CCCCc1nc(Cl)c(/C=N/N2C(=O)c3cccc4c(N5CCOCC5)ccc(c34)C2=O)n1Cc1ccc(Cl)cc1Cl experimental_result=180
smiles_repr=CCCCc1nc(Cl)c(/C=N/N2C(=O)c3cccc4c(N5CCOCC5)ccc(c34)C2=O)n1Cc1cccc(Cl)c1 experimental_result=430

Specify measured MIC for CCCCc1nc(Cl)c(/C=N/N2C(=O)c3cccc4c(N5CCOCC5)ccc(c34)C2=O)n1Cc1ccc([N+](=O)[O-])cc1 .
850

Specify measured MIC for CCCCc1nc(Cl)c(/C=N/N2C(=O)c3cccc4c(N5CCOCC5)ccc(c34)C2=O)n1Cc1ccc(F)cc1 .
440

Specify measured MIC for CCCCc1nc(Cl)c(/C=N/N2C(=O)c3cccc4c(N5CCOCC5)ccc(c34)C2=O)n1Cc1ccc(Cl)cc1 .
430

Every entry's value here was drawn from ChEMBL document CHEMBL3817825.
